Measured melting point accompanies every entry in the list below.

molecule | assayResult
CC[C@H](C)[C@@H]1NC(=O)c2ccccc2/C1=C/C(=O)NCc1ccccc1 [Compound 15] | 90 to 94 °C
CC[C@H](C)[C@@H]1NC(=O)c2ccccc2/C1=C/C(=O)O [Compound 8] | 215 to 216 °C
CC[C@H](C)[C@@H]1NC(=O)c2ccccc2/C1=C/C(=O)Nc1cccc(C(C)=O)c1 [Compound 16] | 147 to 151 °C
CC[C@H](C)[C@@H]1NC(=S)c2ccccc2/C1=C/C(=O)O [Compound 29] | 193 to 196 °C
CCC(C)C1NC(=O)c2ccccc2/C1=C/C(=O)OC/C=C\COC(=O)/C=C1/c2ccccc2C(=O)N[C@H]1[C@@H](C)CC (some centres unmarked) [Compound 12] | 79 to 81 °C
CC[C@H](C)[C@@H]1NC(=O)c2ccccc2/C1=C/C(=O)OCc1ccccc1 [Compound 11] | 53 to 54 °C

Quick check: melting point of CC[C@H](C)[C@@H]1NC(=O)c2ccccc2/C1=C/C(=O)OCC#CCOC(=O)/C=C1/c2ccccc2C(=O)N[C@H]1[C@@H](C)CC [Compound 13] ?
85 to 87 °C

Repeat for the following molecule: CC[C@H](C)[C@@H]1NC(=O)c2ccccc2/C1=C/C(=O)Nc1ccccc1-c1ccccc1NC(=O)[C@@H](NC(=O)OCC1c2ccccc2-c2ccccc21)C(C)C [Compound 19]
133 to 135 °C

Repeat for the following molecule: CC[C@H](C)[C@H](NC(=O)/C=C1/c2ccccc2C(=S)N[C@H]1[C@@H](C)CC)C(=O)N[C@H](C(=O)OC)[C@@H](C)CC [Compound 30]
178 to 181 °C
